test system: Trypanosoma brucei; experiment: Trypanosoma brucei 72 hour study; type: functional, organism-based; set-up: scale not given: in the data most compounds retested in dose-response had high values; details: 30 µM; 30.03 µM
Hit rate of the full screen: of about 66,000 compounds, about 960 (1.5%) showed an effect of 50% or more. This is one part of a sample in which strong results are shown more often than they occur.
Binarize Percent Effect at -20%; below is Met, at or above is Not met.

compound: CCC(C)S(=O)(=O)N(Cc1ccco1)Cc1ccccc1O (stereo unspecified)
category label: Not met

compound: O=C(NCc1ccco1)[C@@H]1CCO[C@@H]2CCN(C3CCOCC3)C[C@H]21.O=C(O)C(F)(F)F
category label: Met

compound: Cc1nn(C)c2nc(-c3ccccn3)nc(NCCC3CCCN3C)c12 (stereo unspecified)
category label: Met

compound: CCC1(O)CCCN(c2nc(-c3ccccn3)nc3c2c(C)nn3C)C1 (stereo unspecified)
category label: Not met

compound: O=C(NCc1ccccc1-n1cccn1)C1CC2(CCNCC2)CN1 (stereo unspecified)
category label: Not met

compound: C/N=C1\c2cc3cc(OC)ccc3n2CCN1Cc1ccccc1.O=C(O)C(F)(F)F
category label: Not met

compound: CN(Cc1cc(Br)cn1C)C(=O)c1cccnc1
category label: Met

compound: COCCN1CCC(CN(CC2CCCO2)C(=O)CNC(C)=O)CC1 (stereo unspecified)
category label: Not met

compound: CC(C)CC(=O)N1CCc2nc(N3CCOCC3)nc(NC(C)C)c2C1
category label: Not met

compound: CC(C)Nc1nc(N2CCCC2)nc2c1CN(C(C)C)CC2
category label: Not met

compound: CCN1CC2(CC1=O)CN(Cc1ccc(C)o1)CCN(C(=O)C(C)C)C2.O=C(O)C(F)(F)F (stereo unspecified)
category label: Not met
